Test system: wild oat
Protocol text: Test B postemergence herbicide test
Assay type: in vivo, Avena fatua
Setup conditions: Postemergence, 500 g ai/ha; visual rating after 13 to 15 days, scale 0 (no effect) to 100 (complete control)
Reported metric: Plant response rating, Oat, Wild

CON=C(C)c1cccc(NC(=O)c2cc(C(C)(C)C)nn2C)c1 :: 20
CCOC(=O)c1cc(NC(=O)c2cc(C(C)(C)C)nn2CC)ccc1OCC :: 20
CCn1nc(C(C)(C)C)cc1C(=O)Nc1cccc(C(=O)OCCF)c1C :: 10
CCOC(=O)c1cc(NC(=O)c2cc(C(C)(C)C)nn2CC)ccc1F :: 30
CCn1nc(C(C)(C)C)cc1C(=O)Nc1cccc2c1CCN(C1CCCC1)C2=O :: 10
